Target: Alpha-bungarotoxin (Bungarus multicinctus)
Assay: alpha-bungarotoxin binders on microarray, profiling panel, artefact control for SMM control protein annotation, biochemical, small-molecule microarray, Alexa647 label, 635/667 nm fluorescence (AID 1117)
Details: alpha-BTX-A647 binding fluorescence, higher = more signal
ASSAY_READOUT: composite z-score

Requested read-out: composite z-score. Entry: `CC(C)CCN1CCc2nc(COc3ccccc3)c3c(c2C1)CO[C@@H](C)C3` 0.221

Requested read-out: composite z-score. Entry: `O=c1n(-c2ccccc2)c(=O)n2n1CC[C@@H]1C(=NOCc3ccccc3)[C@H]3O[C@H]3[C@@H](O)[C@@H]12` 1.55

Requested read-out: composite z-score. Entry: C=C(C)C(=O)OCC1CN2[C@@H](CC[C@@H](C)[C@@H]2c2ccc(Br)cc2)C(=O)O1 (stereo not given in full) 0.499

Requested read-out: composite z-score. Entry: `CO[C@H]1COC(=O)CC=C[C@@H](C)[C@H](OC)COC(=O)CCC[C@@H]1C` -0.069

Requested read-out: composite z-score. Entry: `C#CCCCON=C1[C@H]2CCn3c(=O)n(-c4ccccc4)c(=O)n3[C@H]2[C@H](O)[C@@H]2O[C@H]12` 0.515
